Items are presented alongside their recorded pKd.
STUDY_SYSTEM: GDP-bound KRAS wild-type protein (Homo sapiens)
Sequence (P01116 whole entry): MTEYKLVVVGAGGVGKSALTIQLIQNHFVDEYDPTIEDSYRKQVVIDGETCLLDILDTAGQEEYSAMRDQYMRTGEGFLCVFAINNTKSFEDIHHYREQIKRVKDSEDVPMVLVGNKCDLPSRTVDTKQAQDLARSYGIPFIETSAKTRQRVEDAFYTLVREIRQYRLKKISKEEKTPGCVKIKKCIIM
PROCEDURE_SUMMARY: Binding to KRAS by surface plasmon resonance (SPR), Single Cycle Kinetics
CONDITION_CONTEXT: SPR, Single Cycle Kinetics, GDP-bound KRAS wild-type protein; read-out: KRAS KD
pKd: −log10 of the molar value.
QUANTITY_KIND: pKd

1) CCOC[C@H]1C(=O)N[C@@H]([C@@H](C)CC)C(=O)N(C)CC(=O)N(C)[C@H]2C/C=C\CCN(C2=O)[C@@H](CC2CCCCC2)C(=O)N(C)CC(=O)N[C@@H](CCc2ccc(C(F)(F)F)c(Cl)c2)C(=O)N2C[C@H](OCC)C[C@H]2C(=O)NC2(CC(C)(C)C2)C(=O)N(C)[C@@H](C(CC)CC)C(=O)N(C)[C@H](C(=O)N(C)C)CC(=O)N1C [PP2488] = 8.80
2) CCO[C@@H]1C[C@H]2C(=O)NC3(CCC3)C(=O)N(C)[C@@H](C3CCCC3)C(=O)N(C)[C@H](C(=O)N(C)C)CC(=O)N(C)[C@@H](CC)C(=O)N[C@@H]([C@@H](C)CC)C(=O)N(C)CC(=O)N(C)[C@H]3CCCCN(C3=O)[C@@H](Cc3ccc(C(F)(F)F)cc3)C(=O)N(C)CC(=O)N[C@@H](CCc3ccc(C(F)(F)F)cc3F)C(=O)N2C1 [PP0885] = 10.01
3) C=CCN1CC(=O)N(C)[C@H]2C/C=C\CCN(C2=O)[C@@H](Cc2ccc(C)cc2)C(=O)N(C)CC(=O)N[C@@H](CCc2cc(F)c(C(F)(F)F)c(F)c2)C(=O)N2C[C@H](OCC)C[C@H]2C(=O)NC2(CC(C)(C)C2)C(=O)N(C)[C@@H](C2CCCC2)C(=O)N(C)[C@H](C(=O)N(C)C)CC(=O)N(C)[C@@H](CC(C)C)C(=O)N[C@@H]([C@@H](C)CC)C1=O [PP2050] = 9.72
4) CCCOC[C@H]1C(=O)N[C@@H]([C@@H](C)CC)C(=O)N(C)CC(=O)N(C)[C@H]2C/C=C\CCN(C2=O)[C@@H](Cc2ccc(C)cc2)C(=O)N(C)CC(=O)N[C@@H](CCc2ccc(C(F)(F)F)c(Cl)c2)C(=O)N2C[C@H](OCC)C[C@H]2C(=O)NC2(CC(C)(C)C2)C(=O)N(C)[C@@H](C2CCCC2)C(=O)N(C)[C@H](C(=O)N(C)C)CC(=O)N1C [PP2402] = 10.04
5) CCC[C@H]1C(=O)N[C@@H]([C@@H](C)CC)C(=O)N(C2CC2)CC(=O)N(C)[C@H]2C/C=C\CCN(C2=O)[C@@H](Cc2ccc(C(F)(F)F)cc2)C(=O)N(C)CC(=O)N[C@@H](CCc2ccc(C(F)(F)F)c(OC)c2)C(=O)N2C[C@H](OCC)C[C@H]2C(=O)N(C)C2(CCC2)C(=O)N(C)[C@@H](C2CCCC2)C(=O)N(C)[C@H](C(=O)N2CCCC2)CC(=O)N1C [PP3097] = 9.42
6) CCO[C@@H]1C[C@H]2C(=O)NC3(CCC3)C(=O)N(C)[C@@H](C3CCCC3)C(=O)N(C)[C@H](C(=O)N(C)C)CC(=O)N(C)[C@@H](CC(C)(C)C)C(=O)N[C@@H]([C@@H](C)CC)C(=O)N(C)CC(=O)N(C)[C@H]3C/C=C\CCN(C3=O)[C@@H](Cc3ccc(C(F)(F)F)cc3)C(=O)N(C)CC(=O)N[C@@H](CCc3cc(F)c(C(F)(F)F)c(F)c3)C(=O)N2C1 [PP1117] = 10.15
7) CCO[C@@H]1C[C@H]2C(=O)NC3(CC(F)(F)C3)C(=O)N(C)[C@@H](C3CCCC3)C(=O)N(C)[C@H](C3CCC3)CC(=O)N(C)[C@@H](CC3CC3)C(=O)N[C@@H]([C@@H](C)CC)C(=O)N(C)CC(=O)N(C)[C@H]3C/C=C\CCN(C3=O)[C@@H](Cc3ccc(C(F)(F)F)cc3)C(=O)N(C)CC(=O)N[C@@H](CCc3cc(F)c(C(F)(F)F)c(F)c3)C(=O)N2C1 [PP1639] = 9.17
8) CCO[C@@H]1C[C@H]2C(=O)NC3(CCCC3)C(=O)N(C)[C@@H](C3CCCC3)C(=O)N(C)[C@H](C(=O)N(C)C)CC(=O)N(C)[C@@H](CC(C)C)C(=O)N[C@@H]([C@@H](C)CC)C(=O)N(C)CC(=O)N(C)[C@H]3CC(C)=CCN(C3=O)[C@@H](Cc3ccc(C(F)(F)F)cc3)C(=O)N(C)CC(=O)N[C@@H](CCc3cc(F)c(C(F)(F)F)c(F)c3)C(=O)N2C1 [PP1031] = 9.17
9) CC[C@H](C)[C@@H]1NC(=O)[C@@H]2CCCCCCc3ccc(cc3)C[C@@H](C(=O)N(C)CC(=O)N[C@@H](CCc3ccc(C(F)(F)F)c(OC)c3)C(=O)N3C[C@H](OC4CCC4)C[C@H]3C(=O)NC3(CC(C)(C)C3)C(=O)N(C)[C@@H](C3CCCC3)C(=O)N(C)[C@H](C(=O)N(C)C)CC(=O)N2C)N2CC/C=C\C[C@@H](C2=O)N(C)C(=O)CN(C)C1=O [PP3068] = 10.30
10) CCO[C@@H]1C[C@H]2C(=O)NC3(CCC3)C(=O)N(C)[C@@H](C3CCCC3)C(=O)N(C)[C@H](C(=O)N3CCOCC3)CC(=O)N(C)[C@@H](Cc3ccccc3C#N)C(=O)N[C@@H]([C@@H](C)CC)C(=O)N(C)CC(=O)N(C)[C@H]3CCCCCN(C3=O)[C@@H](Cc3ccc(F)cc3)C(=O)N(C)CC(=O)N[C@@H](CCc3cc(F)c(C(F)(F)F)c(F)c3)C(=O)N2C1 [PP1185] = 9.30
11) CCO[C@@H]1C[C@H]2C(=O)N(C)C3(CC(C)(C)C3)C(=O)N(C)[C@@H](C3CCCC3)C(=O)N(C)[C@H](C(=O)N(C)C)CC(=O)N(C)[C@H]3CCC/C=C/c4ccc(cc4)C[C@@H](C(=O)N(C)CC(=O)N[C@@H](CCc4ccc(Cl)c(Cl)c4)C(=O)N2C1)N1CC/C=C\C[C@@H](C1=O)N(C)C(=O)CN(C1CC1)C(=O)[C@H]([C@@H](C)CC)NC3=O [PP3061] = 9.89

* * *

STUDY_SYSTEM: UniProt P01116
PROCEDURE_SUMMARY: Binding to KRAS by surface plasmon resonance (SPR), Single Cycle Kinetics
CONDITION_CONTEXT: SPR Single Cycle Kinetics, GDP-bound KRAS wild-type protein, 1:1 binding model; read-out: KRAS KD
Where a SMILES comes first, the peptide text is derived from it. Bridges are numbered along the chain shown (N, C = ends). [ ]: non-standard residue; d: D form. The star is where a group is joined. hPhe(3,5-F2-4-CF3) = N[C@@H](CCc1cc(F)c(C(F)(F)F)c(F)c1)C(=O)O; NPrPhe(4-CF3) = CCCN[C@@H](Cc1ccc(C(F)(F)F)cc1)C(=O)O; NMeGly(cPent) = CN[C@H](C(=O)O)C1CCCC1; Nva(3-Et) = CCC(CC)[C@H](N)C(=O)O; NMeD = CN[C@@H](CC(=O)O)C(=O)O; NMeL = CN[C@@H](CC(C)C)C(=O)O; Morpholide = C1CN(*)CCO1; Ac5c = NC1(C(=O)O)CCCC1; Aze = O=C(O)[C@@H]1CCN1; Sar = CNCC(=O)O
QUANTITY_KIND: Kd (nM)

1. CCCN1C(=O)[C@@H]2CCN2C(=O)CN(C)C(=O)[C@H](C(CC)CC)NC(=O)[C@H](CC(C)C)N(C)C(=O)C[C@@H](C(=O)N2CCOCC2)N(C)C(=O)[C@H](C2CCCC2)N(C)C(=O)C2(CCCC2)NC(=O)[C@@H]2CCCN2C(=O)[C@H](CCc2cc(F)c(C(F)(F)F)c(F)c2)NC(=O)CN(C)C(=O)[C@@H]1Cc1ccc(C(F)(F)F)cc1 [PP0804] ([NMeL][Nva(3-Et)][Sar][Aze][NPrPhe(4-CF3)][Sar][hPhe(3,5-F2-4-CF3)]P[Ac5c][NMeGly(cPent)][NMeD]-Morpholide; lactam N-11) = 1.4
2. CCO[C@@H]1C[C@H]2C(=O)NC3(CCC3)C(=O)N(C)[C@@H](C3CCCC3)C(=O)N(CCC3CCC3)[C@H](C(=O)N3CCOCC3)CC(=O)N(C)[C@@H](CC(C)C)C(=O)N[C@@H]([C@@H](C)CC)C(=O)N(C)CC(=O)N(C)[C@H]3CCCCN(C3=O)[C@@H](Cc3ccc(C(F)(F)F)cc3)C(=O)N(C)CC(=O)N[C@@H](CCc3cc(F)c(C(F)(F)F)c(F)c3)C(=O)N2C1 = 0.62
